// reported inhibition for each item listed
- PROTOCOL NOTES: growth suppression of yeast trafficking mutant, preliminary HTS, modulators of trafficking downstream of Golgi apparatus project, 1536-format plate, OD 615 nm (AID 637)
- ASSAY CONDITIONS: yeast transport mutant growth, absorbance 615 nm, 18 h; stronger effect = higher value

COMPOUND: COc1ccc(CCNC(=O)C2CCN(Cc3nc(-c4cccc(Cl)c4)oc3C)CC2)cc1OC
UNIT ABBREVIATION: %
inhibition: -1.45
--
COMPOUND: c1ccc(Cc2nnc3n2CCCCC3)cc1
UNIT ABBREVIATION: %
inhibition: 0.82
--
COMPOUND: Cc1ccnc(NC(=O)CCC(=O)N(CC(=O)NC(C)(C)C)C2CCCC2)c1
UNIT ABBREVIATION: %
inhibition: 5.56
--
COMPOUND: Cc1nc2ccccc2n1CCC(=O)Nc1cccc(F)c1
UNIT ABBREVIATION: %
inhibition: -5.33
--
COMPOUND: CCC(=O)N1C(=O)CCN(C(C)=O)c2ccccc21
UNIT ABBREVIATION: %
inhibition: 0.32
--
COMPOUND: COc1ccc(-c2noc(CN(C(=O)C(C)(C)C)C(C)C)n2)cc1
UNIT ABBREVIATION: %
inhibition: -6.83
--
COMPOUND: CCc1nnc(NC(=O)c2cccc(C(=O)Nc3nnc(CC)s3)n2)s1
UNIT ABBREVIATION: %
inhibition: 73
--
COMPOUND: CCCC(=O)Nc1ccccc1-c1nnn(CC(=O)Nc2ccc(OCC)cc2)n1
UNIT ABBREVIATION: %
inhibition: -4.75
--
COMPOUND: COc1ccc(N2C(=O)CC(N3CCN(c4ccccc4F)CC3)C2=O)cc1 (stereo unspecified)
UNIT ABBREVIATION: %
inhibition: 2.26
--
COMPOUND: Nc1sccc1C(=O)c1ccc(Cl)cc1
UNIT ABBREVIATION: %
inhibition: -4.17
--
COMPOUND: CC1CCN(S(=O)(=O)c2ccc(NC(=O)CSc3nnnn3C)cc2)CC1
UNIT ABBREVIATION: %
inhibition: -3.49

----------
- PROTOCOL NOTES: reversal of MRP1-mediated doxorubicin resistance, pilot screen, H69AR cells, doxorubicin co-treatment (AID 601)
- ASSAY CONDITIONS: H69AR cells + 2 uM doxorubicin, CellTiter-Glo, 72 h; measured here: viability with 2 uM doxorubicin; at 10 µM; stronger effect = lower value
The recorded viability of each item maps onto one of these classes: Low = under 80%, Medium = from 80% up to 90%, High = 90% and over

COMPOUND: ON1C2CCCCC2N(O)C1c1c(F)c(F)c(F)c(F)c1F (stereo not drawn)
CLASSIFICATION: Medium

COMPOUND: CCCOc1nc(N)c(C#N)c(-c2ccccc2F)c1C#N
CLASSIFICATION: Low

COMPOUND: Cc1ccc(CN2C(=O)CCC2C(=O)NCCCN2CCC(C)CC2)cc1 (stereo not drawn)
CLASSIFICATION: High

COMPOUND: CCC(C)(C)n1nnnc1C(c1ccncc1)N1CCN(c2cccc(OC)c2)CC1 (stereo not drawn)
CLASSIFICATION: Medium

COMPOUND: CCn1c(SCC(=O)Nc2nccs2)nnc1-c1ccncc1
CLASSIFICATION: Medium

COMPOUND: Cc1cc(NC(c2cccnc2)c2c(C)[nH]c3ccccc23)no1 (stereo not drawn)
CLASSIFICATION: High

COMPOUND: Cc1ccc(S(=O)(=O)n2nc(OC(=O)c3ccco3)cc2N)cc1
CLASSIFICATION: Medium

COMPOUND: Cc1ccc(OC(=O)NC2CCS(=O)(=O)C2)cc1C (stereo not drawn)
CLASSIFICATION: High

COMPOUND: Cc1noc(C)c1CSc1nnc2n(-c3ccccc3)c(=O)c3ccccc3n12
CLASSIFICATION: High

COMPOUND: O=C(CSc1ncnc2c1oc1ccccc12)Nc1ccccc1F
CLASSIFICATION: Medium

COMPOUND: COC(=O)C1=C(N)Oc2cc(C)[nH]c(=O)c2C1c1ccncc1 (stereo not drawn)
CLASSIFICATION: Medium

COMPOUND: CC1CC(C)CN(CCCNC(=O)COc2cc(=O)n(C)c3ccccc23)C1 (stereo not drawn)
CLASSIFICATION: Low

COMPOUND: CCSCCNC(=O)c1cc(-n2cnnc2)ccc1Cl
CLASSIFICATION: Medium

COMPOUND: Cc1cc(C(=O)CSCc2nnc3n(CCC(C)C)c(=O)c4ccccc4n23)c(C)n1C
CLASSIFICATION: Low

----------
- PROTOCOL NOTES: reversal of MRP1-mediated doxorubicin resistance, pilot screen, H69AR cells, doxorubicin co-treatment (AID 601)
- ASSAY CONDITIONS: H69AR cells + 2 uM doxorubicin, CellTiter-Glo, 72 h; at 10 µM; stronger effect = higher value

COMPOUND: Cc1ccc(N2CC(C(=O)N3CCN(C(=O)c4ccco4)CC3)CC2=O)cc1 (stereo unspecified)
differential viability (reversal), %: -1.97
--
COMPOUND: COc1cc2c(C)nc(C)c(C#N)c2cc1OC
differential viability (reversal), %: 10.1
--
COMPOUND: CC1CCN(C(=O)Cn2c(=O)oc3ccccc32)CC1
differential viability (reversal), %: 6.24
--
COMPOUND: COc1cccc(C(=O)OCn2nnc3ccccc3c2=O)c1
differential viability (reversal), %: 4.58
--
COMPOUND: CCCCC(O)(C(NC=O)C(=O)OC)C(F)(F)F (stereo unspecified)
differential viability (reversal), %: 3.77
--
COMPOUND: O=c1c2nnn(Cc3ccccc3)c2ncn1-c1ccccc1
differential viability (reversal), %: 5.12
--
COMPOUND: c1ccc(Cn2nnc3c(N4CCC5(CC4)OCCO5)ncnc32)cc1
differential viability (reversal), %: -8.68
--
COMPOUND: COc1cccc(-n2c(C)nc3c(cnn3-c3ccc(C)cc3)c2=O)c1
differential viability (reversal), %: -12
--
COMPOUND: O=C(NCCN1CCOCC1)c1ccc2c(c1)N(Cc1ccccc1)C(=O)CS2
differential viability (reversal), %: 4.81
--
COMPOUND: O=C(Nc1ccc2c(c1)OCCO2)C1CCCN1S(=O)(=O)c1cccc2cccnc12 (stereo unspecified)
differential viability (reversal), %: 14.4
--
COMPOUND: O=C(CSc1nnc(-c2ccco2)c(-c2ccco2)n1)Nc1ccccc1
differential viability (reversal), %: -12.2

----------
- PROTOCOL NOTES: reversal of MRP1-mediated doxorubicin resistance, pilot screen, H69AR cells, doxorubicin co-treatment (AID 601)
- ASSAY CONDITIONS: H69AR cells + 2 uM doxorubicin, CellTiter-Glo, 72 h; at 10 µM; stronger effect = higher value
// reported differential viability (reversal) for each item listed

COMPOUND: COc1ccc(CC(NC(C)=O)C(=O)N2CCN(C(=O)N(C(C)C)C(C)C)CC2)cc1 (stereo not given)
differential viability (reversal), %: 5.88

COMPOUND: O=C(NCc1ccco1)C1CC(=O)N(c2ccc(F)cc2)C1 (stereo not given)
differential viability (reversal), %: 16

COMPOUND: COc1ccc(S(=O)(=O)N2CCCC(C(=O)N3CCCCCC3)C2)cc1 (stereo not given)
differential viability (reversal), %: -3.65

COMPOUND: O=C(Nc1ccc(Cl)cc1)C1CC=CCC1C(=O)OCC(F)(F)C(F)F (stereo not given)
differential viability (reversal), %: 7.29

COMPOUND: O=C(O)CCc1ccc(-c2ccc(Br)cc2)n1CC(=O)O
differential viability (reversal), %: 2.92

COMPOUND: COc1ccccc1Oc1coc2c(CN3CCN(C)CC3)c(O)ccc2c1=O
differential viability (reversal), %: 14.9

COMPOUND: O=C(c1cnn2c(C(F)(F)F)cc(-c3ccco3)nc12)N1CCc2ccccc2C1
differential viability (reversal), %: 3.92

COMPOUND: CCCNC(=O)c1ccccc1C(=O)NCCC
differential viability (reversal), %: -4.96

COMPOUND: CCC(=O)N1CCc2cc(Br)cc(S(=O)(=O)CCC(=O)NCC3CCCO3)c21 (stereo not given)
differential viability (reversal), %: 13.4

COMPOUND: O=C1CCCC2=C1C(c1ccsc1)CC(=O)N2c1ccccc1 (stereo not given)
differential viability (reversal), %: -3.37

COMPOUND: CC(=O)C1=C(C)NC(SCSc2ccccc2)=C(C#N)C1c1cccnc1 (stereo not given)
differential viability (reversal), %: 6.64

COMPOUND: CCCCOCCCNC(=O)c1ccccc1OCC
differential viability (reversal), %: 9.53

COMPOUND: COC(=O)c1[nH]c2cccc(C)c2c1NC(=O)CN1CCCc2ccccc21
differential viability (reversal), %: 2.1

COMPOUND: COC(=O)c1cc2ccsc2n1CC(=O)Nc1cc(C)cc(C)c1
differential viability (reversal), %: -0.08

COMPOUND: COc1ccccc1NC(=O)C1=C(C)Nc2nnnn2C1c1ccccc1OC (stereo not given)
differential viability (reversal), %: 10.4

COMPOUND: CCOC(=O)N1CCC(NC(=O)CSCc2nc(-c3cccc(OC)c3)oc2C)CC1
differential viability (reversal), %: 2.79

COMPOUND: CC1CCC2C(C1)c1sc(=O)[nH]c1SC2(C)C (stereo not given)
differential viability (reversal), %: 2.79

COMPOUND: COC(=O)Nc1ccccc1C(=O)N1CCCCC1
differential viability (reversal), %: 6.15

COMPOUND: CCN(CC)c1ccc2cc(NC(=O)CCC(=O)O)c(=O)oc2c1
differential viability (reversal), %: -12.2

COMPOUND: Cc1nnc(SCCn2c(N3CC(C)CC(C)C3)nc3c2c(=O)n(C)c(=O)n3C)s1 (stereo not given)
differential viability (reversal), %: -2.37

COMPOUND: CCSc1ncc(C#N)c(=O)[nH]1
differential viability (reversal), %: -2.66

COMPOUND: Cc1nn(-c2ccccc2)c(C)c1C(=O)OCC(=O)c1c(N)n(CC(C)C)c(=O)n(C)c1=O
differential viability (reversal), %: -24.7

COMPOUND: CCOc1ccc(NC(=O)CN(C)S(=O)(=O)c2cccs2)cc1
differential viability (reversal), %: 6.1

COMPOUND: Nc1c(Sc2ccccc2)c(=O)[nH]c(=O)n1Cc1ccccc1
differential viability (reversal), %: 8.38

COMPOUND: COCCn1c(C)cc(C(=O)COC(=O)c2n[nH]c3ccccc23)c1C
differential viability (reversal), %: -2.8

COMPOUND: COCCNC(=O)c1c(N)n(CCC2=CCCCC2)c2nc3ccccc3nc12
differential viability (reversal), %: 10.8

COMPOUND: Cc1cccc2cc(CN(Cc3nnnn3Cc3ccccc3)C3CCCC3)c(=O)[nH]c12
differential viability (reversal), %: 31.2

COMPOUND: COc1cccc(NC(=O)N2CCN(c3cccc(C)c3C)CC2)c1
differential viability (reversal), %: -4.58

COMPOUND: O=C(COC(=O)C12CC3CC(CC(O)(C3)C1)C2)N1CCN(S(=O)(=O)c2ccc(Cl)cc2)CC1
differential viability (reversal), %: -7.7

COMPOUND: COc1ccc(NC(=O)c2cc(C)on2)cc1OC
differential viability (reversal), %: 8.07

COMPOUND: C=CCC(NCc1ccco1)c1ccc(OC)cc1OC (stereo not given)
differential viability (reversal), %: 7.67

COMPOUND: CCC(NC(=O)Nc1cc(OC)c(OC)c(OC)c1)(C(F)(F)F)C(F)(F)F
differential viability (reversal), %: -7.81

COMPOUND: COCc1cc(C)nc(SCC(=O)Nc2cccc(C)c2C)c1C#N
differential viability (reversal), %: 11.9

COMPOUND: Cc1ccc2c(c1)NC(=O)C(CC(=O)NCCN(CC(C)C)CC(C)C)O2 (stereo not given)
differential viability (reversal), %: 5.71

COMPOUND: Cc1cccc(C2CC(c3ccc(Br)cc3)Nc3nc(N)nn32)c1 (stereo not given)
differential viability (reversal), %: -14.7

COMPOUND: O=S1(=O)CC(N2CCCCC2)C(N2CCCCC2)C1 (stereo not given)
differential viability (reversal), %: 16.9

COMPOUND: COc1cc(NC(=O)Cc2cccs2)ccc1-n1cnnn1
differential viability (reversal), %: 7.88

COMPOUND: CC(C)CCNC(=O)C1CCN(C(=O)N(C)C)CC1
differential viability (reversal), %: 5

COMPOUND: O=C(OCc1nnc(-c2ccccc2)o1)c1ccc(S(=O)(=O)NCc2ccco2)cc1
differential viability (reversal), %: -6.69

COMPOUND: COc1ccc(OCC(=O)N2CCN(C(=O)Cc3ccccc3)CC2)cc1
differential viability (reversal), %: -12.1

COMPOUND: Cc1ccc(S(=O)(=O)CC(=O)N2CCCCCC2)cc1
differential viability (reversal), %: 1.99

COMPOUND: OC(CN1CCN(c2ccccn2)CC1)Cn1c2ccccc2c2ccccc21 (stereo not given)
differential viability (reversal), %: -10.4

COMPOUND: CCOC(=O)Cn1c(S(=O)(=O)Cc2ccccc2)nc2ccccc21
differential viability (reversal), %: 4.28

COMPOUND: COC(=O)[C@H](C)NC(=O)Nc1cc(OC)ccc1OC
differential viability (reversal), %: 25

COMPOUND: COCCOC(=O)c1c(C)nc(SCC(=O)Nc2ccc(OC)cc2)c(C#N)c1-c1ccco1
differential viability (reversal), %: 14.7

Hey, just so you know, these numbers are from PubChem BioAssay.
